Value source: patent US10322118B2

Molecular target: Cif (Pseudomonas aeruginosa (strain UCBPP-PA14), UniProt A0A0H2ZD27)
Sequence (A0A0H2ZD27 25-319 limits assumed): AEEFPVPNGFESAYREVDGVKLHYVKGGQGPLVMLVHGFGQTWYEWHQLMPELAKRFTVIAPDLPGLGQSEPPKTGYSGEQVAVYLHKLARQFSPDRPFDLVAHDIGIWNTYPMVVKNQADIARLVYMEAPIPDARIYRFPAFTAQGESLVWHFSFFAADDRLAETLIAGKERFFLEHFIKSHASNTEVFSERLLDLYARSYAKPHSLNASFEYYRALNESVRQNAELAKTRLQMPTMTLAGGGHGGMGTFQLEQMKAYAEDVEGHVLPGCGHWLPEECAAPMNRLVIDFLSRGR
Experiment: Primary high throughput screen with fluorogenic substrate CMNGC;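 also: fluorescence of 200 µL reactions in 96-well plates read on a plate reader, inhibitor at tenfold molar excess over Cif enzyme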
Format: biochemical
Conditions: primary screen; test compounds at 10 μM, 1 μM Cif, 25 μM CMNGC, 60 minutes
PROPERTY: % Inhibition

Known results for molecules:
MOLECULE	PROPERTY	READOUT_VALUE
CC(O)CN1CCN(CC(=O)[O-])CCN(CC(=O)[O-])CCN(CC(=O)[O-])CC1.[Gd+3] (stereo not drawn)	% Inhibition	34%
CCCCCCCCCCCCCCCC[N+](C)(C)C.[Br-] [Cetrimonium bromide]	% Inhibition	44%
CC(=O)[C@H]1CC[C@H]2[C@@H]3CC=C4C[C@@H](OC(=O)CCC(=O)O)CC[C@]4(C)[C@H]3CC[C@]12C [Pregnenolone succinate]	% Inhibition	34%

Value of measured % Inhibition for the entry CC(=O)[C@@]12O[C@](C)(c3ccccc3)O[C@@H]1C[C@H]1[C@@H]3CCC4=CC(=O)CC[C@]4(C)[C@H]3CC[C@@]12C [Algestone acetophenide] : 38%

Form field % Inhibition, entry `O=C([O-])c1ccccc1-c1c2cc(Br)c(=O)cc-2oc2[c]([Hg+])c([O-])c(Br)cc12.[Na+].[Na+].[OH-]` : 47%

# molecule `C[C@@H]1C[C@H]2[C@@H]3CCC4=CC(=O)C=C[C@]4(C)[C@@]3(F)[C@@H](O)C[C@]2(C)[C@H]1C(=O)CO` ; its % Inhibition = 66%
